Each item that follows carries a reported cell viability.
- Test system: HCI01 (cells of a triple-negative basal-like breast cancer xenograft)
- PROCEDURE DETAILS: cell viability (% of vehicle); higher = less cytotoxic
- EXPERIMENTAL PARAMETERS: 10 µM; 72 h
Answer as a number with no unit attached.

Recorded results for 2 compounds are shown here.
Query Nc1nc(=O)n(C2CSC(CO)O2)cc1F (stereo not drawn) yields cell viability of 105

Query COc1ccccc1OCC(O)CN1CCN(CC(=O)Nc2c(C)cccc2C)CC1.Cl.Cl (stereo not drawn) [Ranolazine 2HCl] yields cell viability of 95.6

Attention now turns to another entry.
Query COC(c1ccccc1)(c1ccccc1)C(Oc1nc(C)cc(C)n1)C(=O)O (stereo not drawn) yields cell viability of 79.8

* * *

- Test system: UCD52 (cells of a triple-negative basal-like breast cancer xenograft)
- PROCEDURE DETAILS: cell viability of combination (% of vehicle); higher = less cytotoxic
- EXPERIMENTAL PARAMETERS: 1 µM; 72 h; partner dose: 10 nM
Where a name gives a salt, the structure may show the parent alone.
Each item that follows carries a reported cell viability of combination.
Answer as a number with no unit attached.

Recorded results for 10 molecules are shown here.
Query COc1nc2ccc(Br)cc2cc1[C@@H](c1ccccc1)[C@@](O)(CCN(C)C)c1cccc2ccccc12 [Bedaquiline fumarate] + CN(C)C/C=C/C(=O)Nc1cc2c(Nc3ccc(F)c(Cl)c3)ncnc2cc1O[C@H]1CCOC1 yields cell viability of combination of 91.2

Query Cc1nc(NC(=O)N2CCCC2C(N)=O)sc1-c1ccnc(C(C)(C)C(F)(F)F)c1 (configuration not stated) + CN(C)C/C=C/C(=O)Nc1cc2c(Nc3ccc(F)c(Cl)c3)ncnc2cc1O[C@H]1CCOC1 yields cell viability of combination of 43.4

Query CCCCCCCCCCCCCCCCOP(=O)([O-])OCC[N+](C)(C)C [Miltefosine] + CN(C)C/C=C/C(=O)Nc1cc2c(Nc3ccc(F)c(Cl)c3)ncnc2cc1O[C@H]1CCOC1 yields cell viability of combination of 69.5

Query CCCCc1oc2ccccc2c1C(=O)c1cc(I)c(OCCN(CC)CC)c(I)c1.Cl [Amiodarone HCl] + CN(C)C/C=C/C(=O)Nc1cc2c(Nc3ccc(F)c(Cl)c3)ncnc2cc1O[C@H]1CCOC1 yields cell viability of combination of 66.3

Query Cl.Cl.Fc1ccc(C(c2ccc(F)cc2)N2CCN(CC=Cc3ccccc3)CC2)cc1 [Flunarizine 2HCl] + CN(C)C/C=C/C(=O)Nc1cc2c(Nc3ccc(F)c(Cl)c3)ncnc2cc1O[C@H]1CCOC1 yields cell viability of combination of 77

Query Cc1ccc(NC(=O)c2ccc(CN3CCN(C)CC3)cc2)cc1Nc1nc(-c2cccnc2)cs1 [Masitinib (AB1010)] + CN(C)C/C=C/C(=O)Nc1cc2c(Nc3ccc(F)c(Cl)c3)ncnc2cc1O[C@H]1CCOC1 yields cell viability of combination of 64.5

Query COc1cccc2c1C(=O)c1c(O)c3c(c(O)c1C2=O)C[C@@](O)(C(C)=O)C[C@@H]3O[C@H]1C[C@H](N)[C@H](O)[C@H](C)O1.Cl [Daunorubicin HCl] + CN(C)C/C=C/C(=O)Nc1cc2c(Nc3ccc(F)c(Cl)c3)ncnc2cc1O[C@H]1CCOC1 yields cell viability of combination of 20.8

Query C=CC(=O)Nc1cc(Nc2nccc(-c3cn(C)c4ccccc34)n2)c(OC)cc1N(C)CCN(C)C + CN(C)C/C=C/C(=O)Nc1cc2c(Nc3ccc(F)c(Cl)c3)ncnc2cc1O[C@H]1CCOC1 yields cell viability of combination of 50.2

Query CC[C@H](C)[C@H]1O[C@]2(CC[C@@H]1C)C[C@@H]1C[C@@H](C/C=C(\C)[C@@H](O[C@H]3C[C@H](OC)[C@@H](O[C@H]4C[C@H](OC)[C@@H](O)[C@H](C)O4)[C@H](C)O3)[C@@H](C)/C=C/C=C3\CO[C@@H]4[C@H](O)C(C)=C[C@@H](C(=O)O1)[C@]34O)O2 [Ivermectin] + CN(C)C/C=C/C(=O)Nc1cc2c(Nc3ccc(F)c(Cl)c3)ncnc2cc1O[C@H]1CCOC1 yields cell viability of combination of 45.8

Query COc1cccc2c1C(=O)c1c(O)c3c(c(O)c1C2=O)CC(O)(C(=O)CO)CC3OC1CC(N)C(O)C(C)O1 (configuration not stated) [Doxorubicin] + CN(C)C/C=C/C(=O)Nc1cc2c(Nc3ccc(F)c(Cl)c3)ncnc2cc1O[C@H]1CCOC1 yields cell viability of combination of 28.5

New cases:
Query Oc1c(Cl)cc(Cl)c2cccnc12 [Chloroxine] + CN(C)C/C=C/C(=O)Nc1cc2c(Nc3ccc(F)c(Cl)c3)ncnc2cc1O[C@H]1CCOC1 yields cell viability of combination of 75.4

Query CN(C)CC=CC(=O)Nc1cc2c(Nc3ccc(F)c(Cl)c3)ncnc2cc1OC1CCOC1 (configuration not stated) [Afatinib (BIBW2992)] + CN(C)C/C=C/C(=O)Nc1cc2c(Nc3ccc(F)c(Cl)c3)ncnc2cc1O[C@H]1CCOC1 yields cell viability of combination of 21.3

* * *

- System: HCI03 (cells of an ER-positive luminal breast cancer xenograft)
- PROCEDURE DETAILS: cell viability (% of vehicle); higher = less cytotoxic
- EXPERIMENTAL PARAMETERS: 10 µM; 72 h
PROPERTY MEASURED: cell viability

Query CCCNC(=O)NS(=O)(=O)c1ccc(Cl)cc1 [Chlorpropamide] yields cell viability of 113

New cases:
Query CN1CCC(=C2c3ccccc3C=Cc3ccccc32)CC1.Cl [Cyproheptadine hydrochloride] yields cell viability of 115

Query CCOC(=O)c1ccc(N)cc1 [Benzocaine] yields cell viability of 87.2

Query CCN(CC)CCOC(=O)C(c1ccccc1)c1ccccc1.Cl [Adiphenine HCl] yields cell viability of 129

Query NCC1OC(OC2C(N)CC(N)C(OC3OC(CO)C(O)C(N)C3O)C2O)C(N)CC1O (centres undefined) [Tobramycin] yields cell viability of 124

* * *

- Tested on: HCI01
- PROCEDURE DETAILS: cell viability (% of vehicle); higher = less cytotoxic
- EXPERIMENTAL PARAMETERS: 10 µM; 72 h
Structures can show the parent of a compound that is named as a salt.
hey, just use Y if measured cell viability is less than 100, otherwise N

Past entries and their recorded results:
Req: State whether 100 exceeds cell viability recorded for Nc1nc(NC2CC2)c2ncn(C3C=CC(CO)C3)c2n1.O=S(=O)(O)O (configuration not stated) [Abacavir sulfate] .
Resp: N

Req: State whether 100 exceeds cell viability recorded for CC(C)C(N)C(=O)OCCOCn1cnc2c(=O)nc(N)[nH]c21.Cl (configuration not stated) [Valaciclovir HCl] .
Resp: Y

Req: State whether 100 exceeds cell viability recorded for CC(C)c1nc(CN(C)C(=O)NC(CCN2CCOCC2)C(=O)NC(CCC(Cc2ccccc2)NC(=O)OCc2cncs2)Cc2ccccc2)cs1 (configuration not stated) [Cobicistat (GS-9350)] .
Resp: Y

Req: State whether 100 exceeds cell viability recorded for CC12CC3CC(C)(C1)CC(N)(C3)C2.Cl [Memantine hydrochloride] .
Resp: Y

Req: State whether 100 exceeds cell viability recorded for Nc1c(CC(=O)[O-])cccc1C(=O)c1ccc(Br)cc1.[Na+] [Bromfenac Sodium] .
Resp: N

New cases:
Req: State whether 100 exceeds cell viability recorded for C#CC1(O)CCC2C3CCc4cc(OC)ccc4C3CCC21C (configuration not stated) [Mestranol] .
Resp: N

Req: State whether 100 exceeds cell viability recorded for COc1ccc(CN(CCN(C)C)c2ccccn2)cc1.O=C(O)/C=C\C(=O)O [Mepyramine maleate] .
Resp: Y

Req: State whether 100 exceeds cell viability recorded for `Cn1cnc2c(F)c(Nc3ccc(Br)cc3F)c(C(=O)NOCCO)cc21` .
Resp: Y

Req: State whether 100 exceeds cell viability recorded for CO[C@H]1C(=O)[C@]2(C)[C@@H](OC)C[C@H]3OC[C@@]3(OC(C)=O)[C@H]2[C@H](OC(=O)c2ccccc2)[C@]2(O)C[C@H](OC(=O)[C@H](O)[C@@H](NC(=O)OC(C)(C)C)c3ccccc3)C(C)=C1C2(C)C [Cabazitaxel] .
Resp: Y

Req: State whether 100 exceeds cell viability recorded for C[N+](C)(C)CCOC(N)=O.[Cl-] [Carbamoylcholine chloride] .
Resp: N

Req: State whether 100 exceeds cell viability recorded for CC1(C)SC2C(NC(=O)C(NC(=O)N3CCN(S(C)(=O)=O)C3=O)c3ccccc3)C(=O)N2C1C(=O)O.[Na] (configuration not stated) [Mezlocillin Sodium] .
Resp: N

Req: State whether 100 exceeds cell viability recorded for CC(CN1c2ccccc2Sc2ccccc21)N(C)C (configuration not stated) [Promethazine HCl] .
Resp: N

Req: State whether 100 exceeds cell viability recorded for CCCNC1CCc2nc(N)sc2C1.Cl.Cl.O (configuration not stated) [Pramipexole 2HCl Monohydrate] .
Resp: N

Req: State whether 100 exceeds cell viability recorded for CC(C)NCC(O)COc1ccc(CCOCC2CC2)cc1.Cl (configuration not stated) [Levobetaxolol HCl] .
Resp: N

Req: State whether 100 exceeds cell viability recorded for CCOc1cc(C(CS(C)(=O)=O)N2C(=O)c3cccc(NC(C)=O)c3C2=O)ccc1OC (configuration not stated) .
Resp: N

Req: State whether 100 exceeds cell viability recorded for CN1C[C@@H]2c3ccccc3Oc3ccc(Cl)cc3[C@H]2C1.O=C(O)/C=C/C(=O)O [Asenapine] .
Resp: Y

Req: State whether 100 exceeds cell viability recorded for Nc1ccc(S(N)(=O)=O)cc1 [Sulfanilamide] .
Resp: N

Req: State whether 100 exceeds cell viability recorded for CC[C@@]1(O)C(=O)OCc2c1cc1n(c2=O)Cc2cc3c(CN(C)C)c(O)ccc3nc2-1.Cl [Topotecan HCl] .
Resp: Y
